Value source: patent US5997871A

- Tested on: KS Y-1 induced tumors
- ASSAY OVERVIEW: KS Y-1 tumors induced in immunodeficient mice
- MEASUREMENT CONDITIONS: compared to β-hCG peptides 45-57 and 109-119
ENDPOINT LABEL: anti-KS activity of other peptides

Some entries whose results are on file:
SUBSTANCE	ENDPOINT LABEL	VALUE
β-hCG peptide 57-93: β-hCG peptide of amino acids 57-93 (CNYRDVRFESIRLPGCPRGVNPVVSYAVALSCQCALC; UniProt P0DN86 77-113, looked up, fragment)	anti-KS activity of other peptides	inactive
β-hCG peptide 93-100: β-hCG peptide of amino acids 93-100 (CRRSTTDC; UniProt P0DN86 113-120, looked up, fragment)	anti-KS activity of other peptides	inactive
β-hCG peptide 6-40: β-hCG peptide 6-40, forms part of the β-core (RPRCRPINATLAVEKEGCPVCITVNTTICAGYCPT; UniProt P0DN86 26-60, looked up, fragment)	anti-KS activity of other peptides	slight activity
β-hCG peptide 34-49: β-hCG peptide of amino acids 34-49 (CAGYCPTMTRVLQGVL; UniProt P0DN86 54-69, looked up, fragment)	anti-KS activity of other peptides	inactive
β-hCG peptide 38-57: β-hCG peptide of amino acids 38-57, overlaps satellin A1 (CPTMTRVLQGVLPALPQVVC; UniProt P0DN86 58-77, looked up, fragment)	anti-KS activity of other peptides	slight activity
β-hCG peptide 74-95: β-hCG peptide of amino acids 74-95 (RGVNPVVSYAVALSCQCALCRR; UniProt P0DN86 94-115, looked up, fragment)	anti-KS activity of other peptides	inactive
β-hCG peptide 100-110: β-hCG peptide of amino acids 100-110 (CGGPKDHPLTC; UniProt P0DN86 120-130, looked up, fragment)	anti-KS activity of other peptides	inactive

Now let's try a different one.
The substance listed as β-hCG peptide 55-90: β-hCG peptide 55-90, forms part of the β-core (VVCNYRDVRFESIRLPGCPRGVNPVVSYAVALSCQC; UniProt P0DN86 75-110, looked up, fragment) has a reported anti-KS activity of other peptides of slight activity
